Listed here are compounds together with their documented inhibition at 10 µM.
- system.tested: ABHD6 (Mus musculus, UniProt Q8R2Y0)
- Construct: Proteomes (mouse brain membrane fraction or cell lysates); from tissue; host or cells: mouse brain membrane fraction (or cell lysates, not specified)
- Sequence (Q8R2Y0 whole entry): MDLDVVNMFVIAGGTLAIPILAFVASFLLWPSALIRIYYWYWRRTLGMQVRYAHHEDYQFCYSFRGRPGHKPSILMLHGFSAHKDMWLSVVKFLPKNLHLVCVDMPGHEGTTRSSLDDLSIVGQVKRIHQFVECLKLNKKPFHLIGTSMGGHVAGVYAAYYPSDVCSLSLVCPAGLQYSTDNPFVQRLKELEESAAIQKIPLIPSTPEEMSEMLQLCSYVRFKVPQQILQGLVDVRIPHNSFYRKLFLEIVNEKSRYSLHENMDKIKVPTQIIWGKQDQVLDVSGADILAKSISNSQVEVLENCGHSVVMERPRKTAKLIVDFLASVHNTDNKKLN
- assay: In vitro competitive activity-based protein profiling (gel-based, FP-Rh or HT-01 probe)
- Assay type: biochemical
- measurement.conditions: 10 μM inhibitor; read-out: % Inhibition at 10 μM, C = ABHD6

Before answering, review these 5 worked examples.
* O=C(N1CCCC1)n1cc(-c2ccc(-c3ccccc3Cl)cc2)cn1 [Example 108] | > 75%
* Cc1cnn(C(=O)N2CCN(Cc3ccc(OCc4ccccc4)cc3)CC2)c1 [Example 20] | > 75%
* O=C(c1cnn(C(=O)N2CCN(Cc3ccccn3)CC2)c1)N1CCCCC1 [Example 72] | > 75%
* O=C(N1CCN(c2ccccc2N2CCCC2)CC1)n1cc(C(F)(F)F)cn1 [Example 239] | > 75%
* Cc1cnn(C(=O)N2CCCN(S(C)(=O)=O)CC2)c1 [Example 166] | < 25%

[in] So what's the measured inhibition at 10 µM for this one? CC(=O)N(C)CCN(C)C(=O)n1cc(C(F)(F)F)cn1 [Example 159]
[out] > 75%

[in] Quick one: Cc1cnn(C(=O)N2CCCN(C)CC2)c1 [Example 167]
[out] < 25%

[in] Quick one: O=C(N1CCOCC1)n1cc(Cl)cn1 [Example 97]
[out] < 25%

[in] Quick one: CN1CCCN(C(=O)n2cc(C(F)(F)F)cn2)CC1 [Example 156]
[out] < 25%

[in] Quick one: Cc1cnn(C(=O)N2CCN(C(c3ccc(Cl)cc3)c3ccc(Cl)cc3)CC2)c1 [Example 117]
[out] > 75%
